Attribution: PubChem BioAssay AID2058

Consider the following compounds; for each one, report its inhibition.
# ASSAYED SYSTEM: G-protein coupled receptor 35 (Homo sapiens)
# PROTOCOL TEXT: inhibition of zaprinast-stimulated GPR35 beta-arrestin translocation – imaging, U2OS, beta-arrestin-GFP, zaprinast agonist, primary screen (AID 2058)
# MEASUREMENT CONTEXT: zaprinast antagonism, at 10 µM, stronger effect = higher value
About 150 (0.052%) of roughly 290,000 compounds were called active. For the sample, actives were picked, then their nearest neighbours and some compounds at random. Entries with a potency or affinity are not part of this list.
Response body: numeric value in %, unit text excluded.

Query string: Look up inhibition for this compound: "COc1ccc(CCC(=O)Nc2ccc(Cl)c(S(=O)(=O)N3CCCC3)c2)cc1"
Result string: -7.8

Query string: Given "O=[N+]([O-])c1ccc2[nH]nc(-c3ccccc3)c2c1" , state its recorded inhibition.
Result string: -6.7

Query string: // query inhibition value for entry Cc1ccc(NC(=O)C2C(c3ccccc3)C=CC(c3ccccc3)C2C(=O)O)cc1 (stereo not drawn)
Result string: -4.3

Query string: Any idea what inhibition was measured for Cc1oc(-c2ccc(Cl)cc2)nc1CS(=O)CC(=O)NCCCN(C)C1CCCCC1 (stereo not drawn) ?
Result string: -9.6

Query string: What does the record list as inhibition for "COc1ccc(C(=O)/C=C/c2ccc(N3CCCCC3)c([N+](=O)[O-])c2)cc1" ?
Result string: 2.4

Query string: Which measured inhibition value corresponds to "COc1cc(C#N)ccc1OCC(=O)N1CCc2ccccc2C1" ?
Result string: 10.3

Query string: May I ask what inhibition has been recorded for "Cc1nc(N2CCC(C)CC2)c2c(C)c(C(=O)Nc3ccc(C)c(F)c3)sc2n1" ?
Result string: 24.7

Query string: Quick check: inhibition of COc1ccc(NC(=O)/C(Cl)=C(/Cl)S(=O)Cc2ccccc2Cl)cn1 (stereo not drawn) ?
Result string: 115

Query string: Param item = "O=C(NCCN1CCOCC1)c1c[nH]c2ccc(S(=O)(=O)N3CCOCC3)cc2c1=O" ; retrieve measured inhibition.
Result string: 3

Query string: What measured inhibition goes with "O=C(NCCN1CCN(c2ccccc2)CC1)C1CCN(S(=O)(=O)N2CCOCC2)CC1" ?
Result string: 17.1

Query string: Which inhibition reading was recorded for the compound "Cc1ccccc1COc1ccc2oc(C)c(C(=O)O)c2c1" ?
Result string: -10.4

Query string: Please report the recorded inhibition for "Cc1csc2c(N3CCC(C(=O)O)CC3)ncnc12" .
Result string: -2.1

Query string: Quick check: inhibition of "CC(C)c1ccc[n+](-c2nc([O-])sc2C=O)c1" ?
Result string: -8.7

Query string: Item under review: O=C(Nc1ccccc1F)C1CCCN(S(=O)(=O)c2ccc(-n3cnnn3)cc2)C1 (stereo not drawn) . Reported inhibition?
Result string: 7.9

Query string: Requested field: inhibition. Item: "O=C(Nc1cccc(-c2cn3ccccc3n2)c1)c1cc2ccccc2oc1=O"
Result string: -3.4

Query string: Given the entry COc1cccc(C2N=C(c3ccccc3C)NO2)c1OC (stereo not drawn) , report its measured inhibition.
Result string: 13.2

Query string: So what's the measured inhibition for this one? "COc1ccc(Cc2nnc(SCC(=O)NC3CCCCC3)n2C)cc1"
Result string: 9.8

Query string: Suppose we examine the compound O=C1c2ccc([N+](=O)[O-])cc2NC(c2ccco2)N1/N=C/c1ccco1 (stereo not drawn) ; what inhibition value has been reported?
Result string: -4.6

Query string: So what's the measured inhibition for this one? "COc1ccc(OC)c2[nH]c(C(=O)N3CCC(C(=O)O)CC3)cc12"
Result string: -3.2

Query string: // returns reported inhibition for input "O=C(O)c1ccc(COc2ccccc2[N+](=O)[O-])o1"
Result string: 9.8

Query string: Value lookup for inhibition; key = "Cc1nc(N2CCC(C)CC2)c2c(C)c(C(=O)Nc3ccc(C(F)(F)F)cc3)sc2n1"
Result string: 25.3

Query string: I would be grateful if you could share the reported inhibition for COc1ccc(C2SCCN2C(=S)Nc2ccc(F)cc2)cc1 (stereo not drawn) .
Result string: -0.3

Query string: Fill in the blank: the reported inhibition of "COCCNC(=O)CSc1nc2ccc(N3CCOCC3)cc2c(=O)n1CCc1ccccc1" is ____.
Result string: -7.7

Query string: Please give the measured inhibition for this compound: "COc1ccc2nc3oc(C(=O)N4CCN(c5cccc(C(F)(F)F)c5)CC4)cc3cc2c1"
Result string: 8.6

Query string: Quick one: inhibition of "Oc1ccc(Nc2nc(-c3ccccc3F)nc3ccccc23)cc1" ?
Result string: -5.3

Query string: May I ask what inhibition has been recorded for "CCCOC(=O)c1ccc(Nc2cc(C)nc3ncnn23)cc1" ?
Result string: 11.5

Query string: inhibition for "COc1ccc(OC)c(N(CC(=O)Nc2ccc3c(c2)OCCO3)S(C)(=O)=O)c1" ?
Result string: -8.2

Query string: What does the data say about its inhibition? Entry: "Cc1cc(C)c(NC(=O)NC2CCCCC2)c(C)c1"
Result string: -0.9
